Plant response rating, Barnyardgrass overview
# System: barnyardgrass (Echinochloa crus-galli)
# methodSummary: Test A postemergence, barnyardgrass
# Assay type: in vivo
# conditions: 500 g ai/ha, visual injury, 0 to 100 scale (0 no effect, 100 complete control), approximately 10 days
// no unit string in output, number only

Recorded results for 5 compounds are shown here.
C[Si](C)(C)C#Cc1cccc(C2CNC(=O)C2C(=O)Nc2cccc(F)c2F)c1 (centres unmarked) : 50
O=C1NCC(c2cccc(Cn3cccn3)c2)C1C(=O)Nc1ccc(F)cc1F (centres unmarked) : 20
O=C1NCC(c2cccc(OCc3ccccc3)c2)C1C(=O)Nc1cccc(F)c1F (centres unmarked) : 0
O=C1NCC(c2cccc(Cn3cccn3)c2)C1C(=O)Nc1ccccc1Cl (centres unmarked) : 20
O=C1NCC(c2ccccc2Cn2ccc(C(F)(F)F)n2)C1C(=O)Nc1ccccc1F (centres unmarked) : 30

Exercise: Quote Plant response rating, Barnyardgrass reported for O=C1NCC(c2cccc(OCc3ccccc3)c2)C1C(=O)Nc1ccccc1F (centres unmarked) please.
Key: 0

Exercise: Quote Plant response rating, Barnyardgrass reported for O=C1NCC(c2cccc(OCc3ccco3)c2)C1C(=O)Nc1ccccc1F (centres unmarked) please.
Key: 60

Exercise: Quote Plant response rating, Barnyardgrass reported for O=C1NCC(c2cccc(Cn3ccc(C(F)(F)F)n3)c2)C1C(=O)Nc1ccc(F)c(F)c1F (centres unmarked) please.
Key: 60

---

# System: wheat (Triticum aestivum)
# methodSummary: Test A postemergence, wheat
# Type: in vivo
# conditions: 500 g ai/ha, visual injury, 0 to 100 scale (0 no effect, 100 complete control), approximately 10 days
propertyLabel: Plant response rating, Wheat
// no unit string in output, number only

Recorded results for 8 molecules are shown here.
O=C1NCC(c2cccc(OCC3OCCO3)c2)C1C(=O)Nc1ccccc1C(F)(F)F (stereo not drawn) : 0
CN1CC(c2cccc(Oc3ncc(F)cn3)c2)C(C(=O)Nc2ccccc2F)C1=O (single isomer, unassigned) : 60
O=C1NCC(c2cccc(COc3ccccc3)c2)C1C(=O)Nc1ccccc1Cl (stereo not drawn) : 0
O=C1NCC(c2cccc(Oc3ncc(F)cn3)c2)C1C(=O)Nc1cccc(F)c1F (single isomer, unassigned) : 70
O=C1NCC(c2cccc(OCc3ccccc3)c2)C1C(=O)Nc1ccc(F)c(F)c1F (stereo not drawn) : 0
O=C1NCC(c2cccc(Cn3cncn3)c2)C1C(=O)Nc1ccccc1F (stereo not drawn) : 0
CN1CC(c2cccc(OC(F)(F)C(F)OC(F)(F)F)c2)C(C(=O)Nc2ccccc2F)C1=O (stereo not drawn) : 40
O=C1NCC(c2cccc(Oc3ccc(C(F)(F)F)cn3)c2)C1C(=O)Nc1ccccc1F (single isomer, unassigned) : 30

Next molecule, Plant response rating, Wheat to be filled in.
Exercise: Write down measured Plant response rating, Wheat (wheat (Triticum aestivum)) for this molecule. O=C1NCC(c2cccc(OCC3CC3)c2)C1C(=O)Nc1cccc(F)c1F (stereo not drawn)
Key: 50

---

# Tested on: ryegrass, Italian (Lolium multiflorum)
# methodSummary: Test A postemergence, Italian ryegrass
# Format: in vivo
# conditions: 500 g ai/ha, visual injury, 0 to 100 scale (0 no effect, 100 complete control), approximately 10 days
propertyLabel: Plant response rating, Ryegrass, Italian
// no unit string in output, number only

O=C1NCC(c2ccccc2Cn2ccc(C(F)(F)F)n2)C1C(=O)Nc1ccc(F)c(F)c1F (stereo not shown) [Compound 58] : 0
O=C1NCC(c2cccc(OCc3ccccc3)c2)C1C(=O)Nc1ccccc1F (stereo not shown) [Compound 63] : 0
C[Si](C)(C)C#Cc1cccc(C2CNC(=O)C2C(=O)Nc2cccc(F)c2F)c1 (stereo not shown) [Compound 33] : 0

Exercise: Write down measured Plant response rating, Ryegrass, Italian (ryegrass, Italian (Lolium multiflorum)) for this compound. O=C1NCC(c2cccc(OCC3CC3)c2)C1C(=O)Nc1ccccc1F (stereo not shown) [Compound 11]
Key: 20

Data origin, for the record: patent US10405547B2
